Origin of the recorded values: PubChem BioAssay

Give z-score for every item shown.
test: FRG1 expression reporter modulators in myotubes – cell-based, C2C12 myotubes, firefly/Renilla luciferase, luminescence, FRG1 inhibition for FSHD, primary screen (AID 1084); settings: FRG1 promoter luciferase, higher = more signal, called active from +8 up or from −8 down
Answers are plain numbers.

C=C(COC)/C(=C/C[C@H](OC(C)=O)c1ccccc1OCCO)c1cc(C(=O)OC)ccc1OC; 0.181
COC(=O)C(CC#Cc1ccc2c(c1)[C@]1(C(=O)N2)[C@H](c2ccc(OCCO)cc2)N2[C@H](c3ccccc3)[C@H](c3ccccc3)OC(=O)[C@H]2[C@@H]1C(=O)N1CCCCCCC1)C(=O)OC; -0.378
C[C@@H]1ON(c2ccccc2)[C@H](c2ccccc2)[C@H]1C(=O)O; -0.313
COc1ccc([Si](C)(C)[C@@H]2[C@@H](CC(=O)N3Cc4ccccc4C[C@H]3CO)O[C@]3(C(=O)N(Cc4ccc(N5CCOC5=O)cc4)c4ccccc43)[C@H]2C)cc1; -2.85
COCCOC(=O)N1C(=O)[C@@]2(c3cc(C#CCC(C(=O)OC)C(=O)OC)ccc31)[C@H](c1ccc(O)cc1)N1[C@H](c3ccccc3)[C@H](c3ccccc3)OC(=O)[C@H]1[C@@H]2C(=O)Nc1nc2ccccc2s1; 0.909

# batch: return z-score for each of the 3 compounds below
1. CCOC(=O)C[C@H]1[C@H](OC(=O)c2ccccc2-c2ccccc2)[C@@H](NC(=O)C2CCCCC2)c2cc(OCCCO)ccc2N1C(=O)c1ccc2ccccc2n1
2. O=C(NCc1ccccc1)[C@@H]1c2ccccc2C(=O)N(Cc2ccc(OC(F)(F)F)cc2)[C@H]1c1ccc(CO)cc1
3. CCOC(=O)C[C@H]1[C@H](OC(=O)Cc2ccc3c(c2)OCO3)[C@@H](NC(=O)c2ccc3ccccc3n2)c2cc(OCCCO)ccc2N1C(=O)Cc1ccc(OC)cc1

1: 0.396; 2: -1.37; 3: -0.876

# batch: return z-score for each of the 2 compounds below
1. CCCc1cc2c(n1CCc1ccc(Cl)cc1)C(C)C1CN(C(=O)c3ccccc3)C(C)(C(=O)OC)C21 (centres undefined)
2. COCCCN1C(=O)[C@@]2(c3ccc([N+](=O)[O-])cc3)CC(=O)N(CC34CC5CC(CC(C5)C3)C4)[C@@H]2c2ccc(CO)cc21

1. 1.91
2. -0.748

# batch: return z-score for each of the 2 compounds below
1. COc1ccc([Si](C)(C)[C@H]2[C@H](CCO)O[C@@]3(C(=O)N(Cc4cccc(N(C=O)c5ccccc5)c4)c4ccccc43)[C@@H]2C)cc1
2. CCCC#C[Si](O[C@H](CC)c1cn(Cc2ccccc2)nn1)(C(C)C)C(C)C

[-0.837, 0.403]

# batch: return z-score for each of the 2 compounds below
1. NC(=O)N1C(=O)C2C(C1=O)C1C=C(CCCO)C2C(c2ccc(CN3CCCC3)cc2)N1Cc1cc2c(cc1Br)OCO2 (centres undefined)
2. O=C1[C@H]2C=C(I)[C@H](C[C@@H]2OCCCCCCO)[C@@]12CO2

[-0.905, 0.622]

* * *

biological target: Fibroblast growth factor 10 (Homo sapiens); assay: compounds binding fibroblast growth factor 10 – biochemical, small-molecule microarray, 635 nm fluorescence, primary screen (AID 1102); details: FGF10 binding, fluorescence 635 nm, higher = more signal
Give composite z-score for every item shown.
Give bare numbers.

# annotated cases, reported composite z-score shown
C=CCC(OC(C)=O)[C@@H]1[C@@H](N(Cc2cccc3ccccc23)C(=O)Cc2ccc(OC)cc2)c2cc(OCCCO)ccc2N1C(=O)c1ccc2ccccc2c1 (some centres undefined); 0.045
C=CCC(OC(C)=O)[C@@H]1[C@@H](N(Cc2ccc(-c3cccc(C(F)(F)F)c3)o2)C(=O)c2ccc(-c3ccccc3)cc2)c2cc(OCCCO)ccc2N1C(=O)c1ccc2ccccc2c1 (some centres undefined); 0.225
CCCCC(O)C1C=CC2C(=O)N(c3ccccc3)C(=O)C2N1Nc1ccc(C#N)cc1 (centres undefined); 0.398

Continue with the compound presented below.
What value of composite z-score has been reported for the following compound? O=C1N(Cc2ccccc2)c2ccccc2C[C@@]12COC(c1ccc(OCCCO)cc1)=N2 0.596
